Biological target: HLA-DQ2 (Homo sapiens, UniProt P01909+P01920)
Sequence (P01920 33-261 limits assumed, other chains not shown): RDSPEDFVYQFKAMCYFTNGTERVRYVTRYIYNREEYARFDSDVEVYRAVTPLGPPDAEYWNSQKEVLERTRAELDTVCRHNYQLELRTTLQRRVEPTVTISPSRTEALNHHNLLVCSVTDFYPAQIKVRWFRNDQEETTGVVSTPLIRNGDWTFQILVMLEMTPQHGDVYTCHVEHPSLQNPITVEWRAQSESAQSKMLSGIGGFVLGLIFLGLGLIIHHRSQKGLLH
Experiment: Inhibition of IL-2 secretion by TCR transductants stimulated by α-gliadin peptides presented by HLA-DQ2 expressing K562 cells (ELISA)
Assay type: cell-based
Details: inhibition of IL-2 secretion at 200 uM; tested as trans racemate unless otherwise noted; lines naming several Examples = stereoisomer mixture of those Examples

# Compound, % Inh at 200 uM
measured = [
    ("Cc1ccc(SCC(=O)N2CCN(C(=O)[C@@H]3C[C@H]3c3ccccc3)CC2)cc1C (relative stereo)", "B (B=50-74%)"),
    ("O=C(COC1CCCCC1)N1CCN(C(=O)C2CC2c2ccccc2)CC1 (stereo not shown)", "B (B=50-74%)"),
]

====

Biological target: HLA-DQ2 (Homo sapiens, UniProt P01909+P01920)
Assay: Inhibition of IL-2 secretion by TCR transductants stimulated by α-gliadin peptides presented by HLA-DQ2 expressing K562 cells (ELISA)
Format: cell-based
Settings: inhibition of IL-2 secretion at 200 uM; tested as trans racemate unless otherwise noted; lines naming several Examples = stereoisomer mixture of those Examples

# Smiles notation, % Inh at 200 uM
data = [
    ("O=C(COc1ccccc1F)N1CCN(C(=O)[C@@H]2C[C@H]2c2ccccc2)CC1", "B (B=50-74%)"),
    ("O=CNc1ccc(SCC(=O)N2CCN(C(=O)[C@@H]3C[C@H]3c3ccccc3)CC2)cc1", "B (B=50-74%)"),
]
